Taken from PubChem BioAssay (NCI).

- System: MOLT-4 leukemia
- assay.procedure: NCI tumour cell line growth inhibition, 48 h
experimental.endpoint: TGI

A selection of reference data follows.
molecule	TGI
CN(C)CC1CCC/C(=C\c2ccc(N(C)C)cc2)C1=O (configuration not stated)	> 100 µM
CO/C(=N\N=C(/C)C(F)(F)F)c1ccncc1	> 100 µM
COc1cc(OC)cc(N2CCC(c3c(N)nc(N)nc3Cl)CC2)c1	> 100 µM

Q: Find the recorded TGI belonging to COC1=CC(c2ccc[nH]2)=N/C1=C\c1[nH]c(C)c(C(=O)CCC(=O)Oc2ccc3c(c2)CCC2C3CC[C@]3(C)C(=O)CC[C@@H]23)c1C (some centres not stated) and report it.
Ans: > 100 µM

Q: Find the recorded TGI belonging to COc1ccc(C2SCC(=O)N2N=C2NC(=O)CC(=O)N2)cc1 (configuration not stated) and report it.
Ans: > 100 µM

Q: Find the recorded TGI belonging to CC(=O)[CH-]C(=O)c1ccccc1.CC(=O)[CH-]C(=O)c1ccccc1.[Nd+3].[OH-].[OH3+] and report it.
Ans: > 100 µM

Q: Find the recorded TGI belonging to CCCC[C@@H]1NC(=O)[C@H](CCCCN)NC(=O)[C@H](CCCNC(=N)N)NC(=O)[C@H](CC(C)C)NC(=O)[C@@H](NC(=O)[C@H](Cc2cccc(Cl)c2)NC(=O)[C@@H]2CCCN2C(=O)[C@@H](NC(C)=O)C(C)C)CCSSC[C@@H](C(=O)N[C@@H](CCCCN)C(=O)N2CCC[C@H]2C(=O)N2CCC[C@H]2C(=O)N[C@@H](CCC(=O)O)C(N)=O)NC(=O)[C@H](Cc2ccccc2)NC(=O)[C@H](CO)NC(=O)[C@H](C)NC(=O)[C@@H]2CCCN2C1=O and report it.
Ans: > 50 µM

Q: Find the recorded TGI belonging to CCCCCCCCCCCCNC(=O)NCC(OCC)OCC and report it.
Ans: > 10 µM

Q: Find the recorded TGI belonging to CCc1nc2c(O)ccc(O)c2nc1C and report it.
Ans: > 39.5 µM

Q: Find the recorded TGI belonging to CO/N=C(\c1ccccc1)c1cnn(-c2ccccc2)c1N and report it.
Ans: > 25 µM
